molecular target: recombinant human GST-Syk (Homo sapiens); construct: purchased Carna Biosciences 08-176; assay: Homogeneous Time-Resolved Fluorescence (HTRF) assay for the recombinant human Syk enzyme; type: biochemical; settings: recombinant human GST-Syk 5 pM, ATP 25 μM, 10-dose titration 10 μM to 0.508 nM; read-out: rhSYK Activity IC50
quantity.name: IC50 (nM)

Some compounds with recorded IC50:
Asked: Give the value of IC50 reported for the following: COC(=O)c1ccc(C(CO)n2cc(-c3cc(C)cc(Nc4cc(C(F)(F)F)ccn4)n3)nn2)cc1 (stereo not shown)
Given back: 40.3

Asked: Give the value of IC50 reported for the following: Cc1cc(Nc2cc(C(F)(F)F)ccn2)nc(-c2cn(C(C)C(=O)NCc3cc4ccc(F)cc4[nH]c3=O)nn2)c1 (stereo not shown)
Given back: 64.2

[1] Cc1cc(Nc2ncc(F)c(C(F)F)n2)cc(-c2cn(C3CCCCC3O)nn2)c1 (single isomer, unassigned) [Example 7.30]
[2] Cc1cc(Nc2cc(C(F)(F)F)ccn2)nc(-c2cn(C3C=CCCCC3)nn2)c1 (stereo not shown)
[3] Cc1cc(Nc2cc(C(F)(F)F)ccn2)nc(-c2cn([C@@H](C)C(=O)N3CCC[C@H]3C(N)=O)nn2)c1
[4] Cc1cc(Nc2nccc(C(F)(F)F)n2)cc(-c2cn(CC(O)CF)nn2)c1 (racemic)
[5] Cc1cc(Nc2nccc(C(F)(F)F)n2)cc(-c2cn(CC(=O)NC(C)(C)C)nn2)c1
Asked: # rank_down: sort by IC50, max first To answer, arrange all of the labels according to the requested order.
Given back: 5, 3, 2, 4, 1
(5: 183 nM, 3: 87.2 nM, 2: 54 nM, 4: 16.4 nM, 1: 9.9 nM)

These entries and their values trace back to patent US9586931B2.
